- ASSAY_OVERVIEW: Inhibition of ERK phosphorylation in KRAS G12D mutant dependent human HPAF-II cells incubated for 2 hrs by HTRF assay
- Type: cell-based
MEASURE_NAME: pIC50
// pIC50: -log10(molar conc.)

# pIC50 of CN(C)C(=O)CCc1cc2c(N3CC(C)(N(C)C)C3)nc3c(F)c(-c4cc(O)cc5ccccc45)c(CCC#N)cc3c2n1[C@H]1[C@H]2CN[C@@H]1C2 = 6.98

Looking up N#CCCc1cc2c(nc(-n3cncn3)c3cc(CN4CCOCC4=O)n([C@H]4[C@H]5CN[C@@H]4C5)c32)c(F)c1-c1cccc2ccc(F)cc12 , I see its pIC50 listed as 8.00

Lab note: CC(Oc1nc2c(F)c(-c3cc(O)cc4ccccc34)c(CCC#N)cc2c2c1nc(CCC(=O)N(C)C)n2[C@H]1[C@H]2CN[C@@H]1C2)C1CCCN1C (single isomer, unassigned) gave pIC50 of 5.91

Per the records, this molecule ( N#CCCc1cc2c(nc(-c3ccncn3)c3cc(CN4CCOCC4=O)n([C@H]4[C@H]5CN[C@@H]4C5)c32)c(F)c1-c1cccc2ccc(F)cc12 ) has pIC50 equal to 7.77

// Cc1cc2c(nc(N3CC(N(C)C)C3)c3nc(CCC(=O)N(C)C)n([C@H]4[C@H]5CN[C@@H]4C5)c32)c(F)c1-c1cc(O)cc2ccccc12 : pIC50 value = 5.89

pIC50 reading for Cc1nc2c(F)c(-c3cccc4ccc(F)cc34)c(CCC#N)cc2c2c1cc(CN1CCOCC1=O)n2[C@H]1[C@H]2CN[C@@H]1C2 : 8.14
